target_or_test_system: Env of the clade C HIV-1 pseudoviruses of the cross-clade 162-pseudovirus panel (n = 27)
assay_procedure: cell-based or functional assay
value_kind: Median IC50 against viruses neutralized with an IC50 <50 µg/ml (µg/mL)

binder	result_value
PGT-130 (antibody, V domains shown) VH: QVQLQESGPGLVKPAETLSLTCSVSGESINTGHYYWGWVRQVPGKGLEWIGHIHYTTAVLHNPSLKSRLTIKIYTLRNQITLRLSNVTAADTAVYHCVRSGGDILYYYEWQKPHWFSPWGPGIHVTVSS VL: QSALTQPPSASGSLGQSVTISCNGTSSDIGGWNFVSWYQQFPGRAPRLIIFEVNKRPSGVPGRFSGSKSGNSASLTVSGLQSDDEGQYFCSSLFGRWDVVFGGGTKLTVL	0.15
PGT-128 (antibody, V domains shown) VH: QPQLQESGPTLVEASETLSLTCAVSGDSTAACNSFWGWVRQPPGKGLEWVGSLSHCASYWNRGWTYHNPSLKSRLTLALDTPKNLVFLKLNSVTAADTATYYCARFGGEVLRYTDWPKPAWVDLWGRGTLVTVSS VL: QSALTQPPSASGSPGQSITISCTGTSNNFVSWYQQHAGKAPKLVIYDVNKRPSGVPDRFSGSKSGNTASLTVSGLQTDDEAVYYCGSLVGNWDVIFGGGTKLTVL	0.04
PGT-127 (antibody, V domains shown) VH: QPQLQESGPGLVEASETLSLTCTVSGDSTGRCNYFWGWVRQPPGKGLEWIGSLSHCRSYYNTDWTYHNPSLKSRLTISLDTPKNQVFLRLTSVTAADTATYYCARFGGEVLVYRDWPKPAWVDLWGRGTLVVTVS VL: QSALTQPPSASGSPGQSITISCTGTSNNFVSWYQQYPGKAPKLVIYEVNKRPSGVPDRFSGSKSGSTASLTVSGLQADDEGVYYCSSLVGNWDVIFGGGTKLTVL	0.55
